molecular target: human histamine-3 receptor (Homo sapiens, UniProt Q9Y5N1)
Sequence (Q9Y5N1 whole entry): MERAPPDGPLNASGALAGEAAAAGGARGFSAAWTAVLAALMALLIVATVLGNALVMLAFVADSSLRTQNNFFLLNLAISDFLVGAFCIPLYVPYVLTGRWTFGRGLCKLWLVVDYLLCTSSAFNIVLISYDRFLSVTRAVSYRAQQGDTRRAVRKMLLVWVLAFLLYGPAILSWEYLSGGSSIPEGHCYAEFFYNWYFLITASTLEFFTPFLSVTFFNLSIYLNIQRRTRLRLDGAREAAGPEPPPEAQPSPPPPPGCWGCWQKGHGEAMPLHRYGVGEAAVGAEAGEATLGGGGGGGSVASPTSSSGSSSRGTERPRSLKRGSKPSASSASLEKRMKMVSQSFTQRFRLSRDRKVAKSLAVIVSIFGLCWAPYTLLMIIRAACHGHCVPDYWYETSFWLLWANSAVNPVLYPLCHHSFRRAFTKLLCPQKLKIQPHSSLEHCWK
Readout kind: pIC50
Remember, pIC50 is on a log scale: it is -log10 of the molar concentration.

### Prompt Give the measured pIC50 of "Cc1nn2cnnc2cc1-c1ccc(OCCCN2CCCCC2)cc1" .
### Response 8.85
